Test system: primary cultured guinea-pig urinary bladder (GPB) cells
Experiment: Membrane hyperpolarization (MHP) assay, DiBAC(4)3 / FLIPR
Format: cell-based
Settings: Cavia porcellus, maximal steady-state hyperpolarization, normalized to response with 10 μM P1075 (100%)
Method: Compounds were evaluated for potassium channel opening activity using primary cultured guinea-pig urinary bladder (GPB) cells. […] Functional activity at potassium channels was measured by evaluating changes in membrane potential using the bis-oxonol dye DiBAC(4) (Molecular Probes) in a 96-well cell-based kinetic assay system, Fluorescent Imaging Plate Reader (FLIPR) (K. S. Schroeder et al., J. Biomed. Screen., v. 1 pp. 75-81 (1996)), hereby incorporated by reference. […]

compound	target.of.assay	Emax / %
N#CN=C(Nc1cccnc1)NC(NC(=O)c1ccc(Cl)cc1)C12CC3CC(CC(C3)C1)C2 (stereo not shown)	primary cultured guinea-pig urinary bladder (GPB) cells	87
CC(C)(C1CCCCC1)C(NC(=O)c1ccc(Cl)cc1)NC(=NC#N)Nc1cccnc1 (stereo not shown)	primary cultured guinea-pig urinary bladder (GPB) cells	75
Cc1ccc(C(=O)NC(C)NC(=S)Nc2cccc([N+](=O)[O-])c2)cc1 (stereo not shown)	primary cultured guinea-pig urinary bladder (GPB) cells	28

These data points were gathered from patent US20020028836A1.
